experimentalProtocol: Tissue concentrations of LBW242 after daily parenteral dosing
Assay type: in vivo, mice
conditions: mouse, other: parenteral; 50 mg/kg/d parenterally, after 14 days of daily dosing; SK-OV-3 tumor-bearing nude mice; read-out: long-term steady-state concentration in tumors

compound	concentration at 14 days
CNC(C)C(=O)NC(C(=O)N1CCC2CCN(CCc3ccccc3)CC21)C1CCCCC1 (stereo not shown)	> 60 µM
